Reference source: patent US4533655A

# Test system: guinea pig ileum longitudinal muscle (electrically induced twitch)
# method: Guinea pig ileum test
# Format: cell-based
# study conditions: ratio of IC50 of reference Met^5-enkephalin to IC50 of test compound in same preparation, averaged (N=4); Met^5-enkephalin = 100
So basically: is Average Molar Potency Ratio under 50? Then 1. Not under? Then -1.

Q: Dear colleague, could you confirm whether Average Molar Potency Ratio of CCN(C(=O)[C@@H](N)Cc1ccc(O)cc1)[C@H](C)C(=O)NCCCc1ccccc1 falls below 50? Thanks.
Ans: 1

Q: Dear colleague, could you confirm whether Average Molar Potency Ratio of CN[C@@H](Cc1ccc(O)cc1)C(=O)N[C@H](C)C(=O)NCCCc1ccccc1 falls below 50? Thanks.
Ans: -1

Q: Dear colleague, could you confirm whether Average Molar Potency Ratio of CN[C@@H](Cc1ccc(O)cc1)C(=O)N(C)[C@H](C)C(=O)NCCCc1ccccc1 falls below 50? Thanks.
Ans: -1

Q: Dear colleague, could you confirm whether Average Molar Potency Ratio of C[C@H](C(=O)NCCCc1ccccc1)N(C)C(=O)[C@@H](N)Cc1ccc(O)cc1 falls below 50? Thanks.
Ans: -1

Q: Dear colleague, could you confirm whether Average Molar Potency Ratio of C[C@H](C(=O)NCCCc1ccc(F)cc1)N(C)C(=O)[C@@H](N)Cc1ccc(O)cc1 falls below 50? Thanks.
Ans: -1

Q: Dear colleague, could you confirm whether Average Molar Potency Ratio of C[C@H](C(=O)NCCCc1ccc(C(F)(F)F)cc1)N(C)C(=O)[C@@H](N)Cc1ccc(O)cc1 falls below 50? Thanks.
Ans: 1
